Target: Cytochrome P450 11B2, mitochondrial (Homo sapiens, UniProt P19099)
Sequence (P19099 whole entry): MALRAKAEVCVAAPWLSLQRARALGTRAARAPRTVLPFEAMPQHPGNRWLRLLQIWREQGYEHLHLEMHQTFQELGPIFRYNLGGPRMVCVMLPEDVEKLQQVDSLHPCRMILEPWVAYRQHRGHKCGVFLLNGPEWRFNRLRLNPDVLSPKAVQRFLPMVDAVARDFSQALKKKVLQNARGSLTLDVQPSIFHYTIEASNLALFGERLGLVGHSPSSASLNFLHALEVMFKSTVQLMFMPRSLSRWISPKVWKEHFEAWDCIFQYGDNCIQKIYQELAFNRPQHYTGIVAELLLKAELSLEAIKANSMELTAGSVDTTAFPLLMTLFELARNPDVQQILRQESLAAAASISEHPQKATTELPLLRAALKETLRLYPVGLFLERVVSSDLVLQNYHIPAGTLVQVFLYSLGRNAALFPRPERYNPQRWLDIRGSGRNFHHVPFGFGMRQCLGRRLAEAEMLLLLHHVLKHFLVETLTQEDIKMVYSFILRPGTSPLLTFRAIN
Assay: Inhibition of human aldosterone synthase transfected in chinese hamster V79 cells after 24 hrs by LC-MS method
REPORTED_METRIC: IC50 (nM)
Give bare numbers, in nM.

[[record]]
molecule = "CC1(C)CC(c2ccc(C#N)cc2F)c2cn[nH]c21 (configuration not stated)"
reported_metric = "IC50"
numeric_result = 7


Would you kindly look at the next entry?
In: Quick one: IC50 for `CC1(C)C[C@H](c2ccc(C#N)cc2)c2cn[nH]c21` ?
Out: 5

---

Tested on: testosterone production (relative to human aldosterone synthase)
Test: Selectivity ratio of IC50 for testosterone production in human H295R cells to IC50 for human aldosterone synthase
Format: ADME, cell-based
Details: read-out: Ratio IC50
Give selectivity ratio for every item shown.

[[record]]
compound = "CC1(C)CC(c2ccc(C#N)cc2F)c2cn[nH]c21 (configuration not stated)"
tgt = "testosterone production (relative to human aldosterone synthase)"
result = "> 4280"


Would you kindly look at the next entry?
In: What reported selectivity ratio corresponds to `CC1(C)C[C@H](c2ccc(C#N)cc2)c2cn[nH]c21` on testosterone production (relative to human aldosterone synthase)?
Out: > 6000
